tested on: M14 melanoma; experiment: NCI tumour cell line growth inhibition, 48 h
Measure name: TGI

May I ask what TGI has been recorded for O=[N+]([O-])C(/C(Cl)=C(/Cl)N1CCOCC1)=C1\Nc2ccccc2O1 ?
> 100 µM

Give the measured TGI of NC(=O)N/N=C(\Cc1cc(=O)oc2cc(O)ccc12)C(=O)Nc1ccccc1C(N)=O .
> 100 µM

Param item = N#Cc1nc2cc(Cl)c(Cl)cc2nc1-c1ccc(Cl)cc1 ; retrieve measured TGI.
> 100 µM

Quick check: TGI of COc1ccc2c(c1[N+](=O)[O-])CC[C@@H]1[C@@H]2CC[C@]2(C)C(=O)CC[C@@H]12 ?
> 562 µM

Entry Cc1c2ccccc2c(/C=N/NC(=O)CSCC(=O)N/N=C/c2c3ccccc3c(C)c3ccccc23)c2ccccc12 : reported TGI = ?
> 100 µM

Quick one: TGI of CCOP(=O)(OCC)/C(C#N)=C/c1nc[nH]c1C ?
> 100 µM

Using the record for CCCCOc1ccc(/C=C/C2=[N+](CCO)CCO2)cc1 , report its TGI.
> 100 µM

Give the measured TGI of Cc1ccc(NC(=O)c2ccoc2)cc1-c1ccc(C(=O)NCC2CC2)cc1 .
> 25 µM

Which value of TGI has been reported for Cc1cc(C)c2c(-c3ccccc3)cc(=O)[nH]c2c1 in the records?
> 100 µM

Would you kindly share the measured TGI for O=C1c2cccnc2S(=O)(=O)N1c1ccc(Br)cc1 ?
> 100 µM

Returns the measured TGI for the input compound. Input: CC(C)CC(NC(=O)C(O)C(N)Cc1ccccc1)C(=O)O (stereo unspecified)
> 100 µM

Which TGI is listed for COc1cc(/C=C2\CC3C4CC=C5C[C@@H](O)CC[C@]5(C)C4CC[C@]3(C)\C2=N\O)cc(OC)c1OC (stereo partly specified) ?
27.6 µM

Return reported TGI; argument: C[C@]12CC[C@H]3[C@@H](CC=C4C[C@@H](N5CCCC5)CC[C@@]43C)[C@@H]1C/C(=C\c1ccc([N+](=O)[O-])cc1)[C@@H]2O
30.2 µM

Would you kindly share the measured TGI for CCOC(=O)c1nc(SC)sc1NC(=O)c1ccc(OC)cc1 ?
> 100 µM

Can you share its TGI? I mean this compound: Clc1ccc2c(NCCCCNc3nc(N4CCOCC4)nc4ccccc34)ccnc2c1
3.91 µM

Param item = O=NN(CC1(O)OCC(O)C(O)C1O)C(Cc1c[nH]c2ccccc12)C(=O)O (stereo unspecified) ; retrieve measured TGI.
> 100 µM

Look up TGI for this compound: CCOC(=O)CCCN
> 100 µM

Report TGI for CCOc1ccc2c(c1)[n+]([O-])c(C(N)=O)c(N)[n+]2[O-] please.
> 100 µM

// lookup TGI for Fc1ccc(F)c(C=NC23CC4CC(CC(C4)C2)C3)c1
> 10 µM

Param item = CCCCCCCCCCCCCOCCOCCOCCCCC(O)CCCCCCCCCC1=C[C@H](C)OC1=O (stereo partly specified) ; retrieve measured TGI.
> 100 µM

If you can, please state the reported TGI value of CCCCOC(=O)Nc1ccc(S(=O)(=O)Nc2c(Cl)cccc2Cl)cc1 .
> 100 µM

----------
tested on: HT29 colon; assay: NCI tumour cell line growth inhibition, 48 h; in the data active = GI50 below about 0.43 µM; inactive = the rest
A correct response names exactly one class from yes (active), no (inactive)

Recorded call for [O-]c1ccccc1C=NCCN=Cc1ccccc1[O-].[O]=[U+2]=[O] ?
no

Look up the recorded call for CCOc1cc(/C=C/C(=O)CC(=O)/C=C/c2ccc(OC(=O)CNc3nc4ccc(OC)cc4s3)c(OCC)c2)ccc1OC(=O)CNc1nc2ccc(OC)cc2s1 in this test.
no

Lab log entry: COc1cccc2c1C(=O)c1c(O)c3c(c(O)c1C2=O)C[C@@](O)(/C(C)=N/NC(=O)c1cccc([N+](=O)[O-])c1)C[C@@H]3OC1CC(N)C(O)C(C)O1 (some centres undefined) — outcome as called in the assay?
yes

Just curious, what result did CCn1c(-c2nonc2N)nc2cnc(Oc3cccc(NC(=O)c4ccc(OCCN5CCOCC5)cc4)c3)cc21 get here?
no

Lab log entry: c1ccc2[nH]c(-c3ccc(Nc4nc(N5CCCC5)nc5[nH]ncc45)cc3)nc2c1 — outcome as called in the assay?
yes

Short answer needed: outcome of this test for COc1ccc(-c2nc(-c3nc4cc(Cl)c(Cl)cc4[nH]3)c3ccccn23)cc1 ?
no

So what was the verdict on CCCCCOC(=O)c1c(C)[nH]c(/C=C2\N=C(c3ccc[nH]3)C=C2OC)c1C in this test?
yes

Entry COCCn1c(Nc2ccc(C(=O)NO)cc2)nc2ccccc21 : call = ?
no

I'd appreciate the recorded outcome for CCCN1CCC(Oc2cc(Nc3nc(Nc4cccc(F)c4C(N)=O)c4cc[nH]c4n3)c(OC)cc2Cl)CC1 from this test.
no

Status in this test for Nc1nc(N)c2cc(S(=O)(=O)c3cccc(C(F)(F)F)c3)ccc2n1 ?
no

Hi, sorry to bother you, what did the test record for Cc1ccc(NC(=O)c2ccoc2)cc1-c1ccc(C(=O)NCC2CC2)cc1 ?
no

What is the recorded call for this molecule in the test? COc1ccccc1C1C(C#N)=C(N)SC(N)=C1C#N
no

Which result was noted for this molecule in the test: CCCCCCCCCCCC(c1ccccc1)[N+](C)(C)C (centres undefined)
yes

Hi team, can someone confirm the assay call for COC1C(OC(=O)/C=C/C=C/C=C/C=C/C(=O)O)CCC2(CO2)C1C1(C)OC1CC=C(C)C (centres undefined) ?
yes

----------
Give TGI for every item shown.
tested on: SK-MEL-5 melanoma; experiment: NCI tumour cell line growth inhibition, 48 h
Where a SMILES comes first, the peptide text is derived from it. The star is where a group is joined. Cbz = O=C(OCc1ccccc1)*

For the record COc1cc2c(c3nc4ccccc4nc13)-c1ccc(SC)c(=O)cc1[C@@H](NC(C)=O)CC2 , what value of TGI is listed for SK-MEL-5 melanoma?
> 100 µM

Return TGI measured with SK-MEL-5 melanoma given this compound: C[C@]12CC[C@H]3[C@@H](CC=C4C[C@@H](N5CCCC5)CC[C@@]43C)[C@@H]1C/C(=C\c1ccc([N+](=O)[O-])cc1)[C@@H]2O
28.3 µM

What value of TGI on SK-MEL-5 melanoma does COC(=O)/C(=C(/C)c1ccco1)P(=O)(OC)OC have?
> 100 µM

Enter reported TGI observed with SK-MEL-5 melanoma for Cc1ccc(N=NC(=Nc2ccc(F)cc2)c2ccc(N(CCC#N)CCC#N)cc2)cc1
> 100 µM

Request: TGI, test system SK-MEL-5 melanoma, entry Cn1c2ccccc2n2c(=O)c(-c3ccc(Cl)cc3)nnc12
> 100 µM

Value wanted: TGI (SK-MEL-5 melanoma) of entry CCOc1cc(/C=C/C(=O)CC(=O)/C=C/c2ccc(OC(=O)CNc3nc4ccc(OC)cc4s3)c(OCC)c2)ccc1OC(=O)CNc1nc2ccc(OC)cc2s1
17.2 µM

For the record CCOC(=O)CCC(NC(=O)C(CC(=O)OC)NC(=O)OCc1ccccc1)C(=O)NC(CC(=O)OC)C(=O)NC(CCC(=O)OCC)C(=O)NC(CC(=O)OC)C(=O)NC(CCC(=O)OCC)C(=O)NC(CC(=O)OCC)C(=O)OCC (centres undefined) (Cbz-D(OMe)E(OEt)D(OMe)E(OEt)D(OMe)E(OEt)D(OEt)-OEt; configuration not given here) , what value of TGI is listed for SK-MEL-5 melanoma?
> 100 µM

// map Cc1cccc(-c2cc(=O)c3cccnc3[nH]2)c1 to recorded TGI (system: SK-MEL-5 melanoma)
52.3 µM

Tell me reported TGI for CCOc1ccc2c(c1)[n+]([O-])c(-c1ccccc1)c(N)[n+]2[O-] , tested with SK-MEL-5 melanoma.
51.5 µM

----------
system: MDA-N; experiment: NCI tumour cell line growth inhibition, 48 h
Consider the following compounds; for each one, report its TGI.

Endpoint output: TGI of O=C(Nc1ccc(Cl)cc1)c1cc(S(=O)(=O)Nc2nc3ncccc3[nH]2)c(SSc2cc(Cl)c(C(=O)Nc3ccc(Cl)cc3)cc2S(=O)(=O)Nc2nc3ncccc3[nH]2)cc1Cl . Value?
> 100 µM

What measured TGI goes with COP(=O)(OC)[C@@](O)(c1ccccc1)[C@@H](O)[C@H](O)c1ccccc1 ?
> 100 µM

Entry C[C@]12CC[C@H]3[C@@H](CCC4=CC(=O)CC[C@@]43C)[C@]1(O)CC[C@]2(O)C(=O)CO : reported TGI = ?
> 100 µM

Quick check: TGI of CCO/C(O)=c1/s/c(=C2/SC(=S)N(c3ccc(C)cc3)C2=O)n(-c2ccccc2)c1=N ?
> 100 µM

# TGI lookup, item COC(=O)C12CCCN1CCC2
> 100 µM

Given the entry Cn1c2ccccc2n2c(=O)c(-c3ccc(Cl)cc3)nnc12 , report its measured TGI.
> 100 µM

Could you tell me which TGI is on file for CC(Nc1cccc(Cl)c1)c1ccncc1 (stereo not given) ?
> 100 µM

Could you share which TGI value was measured for O=c1cc(-c2cccc(Cl)c2)[nH]c2cc3c(cc12)OCO3 ?
0.158 µM

Record request: TGI value, item COc1cccc2c1C(=O)c1c(O)c3c(c(O)c1C2=O)C[C@@](O)(C(=O)CO)C[C@@H]3OC1CC(N2CCOCC2)C(O)C(C)O1 (stereo not given in full)
0.175 µM

So what's the measured TGI for this one? c1ccc(C/C(=N\Nc2nc3ccccc3[nH]2)c2ccccn2)cc1
12.8 µM
